Consider the following sequences; for each one, report its apparent KD of MS2 coat protein.
tested on: MS2 coat protein; test: apparent KD of MS2 coat protein; designed switch direction (-1 OFF switch, 1 ON switch): -1; higher = weaker reporter binding; conditions: input ligand: none
Please state the figure in nM; there is no need to write the unit.

Given the sequence CGCGGCGCGUAGGAUAUUGGGUCGGACGGCAAAUAAGAAGGACGCACAUGAGGAUCACCCAUGUCGAAAGCACA [Eternabot (Original) Solution 17] (Eterna round: R97, puzzle: Exclusion 6) , what is its reported apparent KD of MS2 coat protein?
33.7

What do you get for AAUAACUUAGGAUAUACAUGAGGAUCACCCAUGUCCCACCCGUUACCCAUGACCAUAUGUAGAAGGAAGAAGAA [Exy#8] (Eterna round: R97, puzzle: Exclusion 3) ?
35.7

Also need UGUACCAUAGGAUAUACAUGAGGAUCACCCAUGUUAAUACGAUAUGUAAUGGUUACUUGUAGAAGGAUGAAAAG [Eternabot (L1) Solution 29] (Eterna round: R97, puzzle: Exclusion 3) , thanks.
11

Next: CUCCGGCCUGUAGGAUAUGGAUCCGAUUAGGAUCCAGAAGGACAUGAGGAUCACCCAUGUACAUGUAAACAGUCAUCACCGGAC [salish99_ExNG1_r04_203] (Eterna round: R96, puzzle: Exclusion NG 1)
16.7

Continue with UAACAAAUGGUCAGGAUAUCACUCCCGGCCCAGAGUGAGAAGGGACAUGAGGAUCACCCAUGUAUGAUUCUCAC [jl-ex4-4.54 ViennaUCT mod] (Eterna round: R97, puzzle: Brourd's mod of Exclusion 4)
15.1

Please answer likewise for AGGGAGCGAGGAUAUACAGAGUAGGAAACUACUCCCUCAGUACAUGAGGAUCACCCAUGUAGAAGGCGCCCGAA [EX2 A.1] (Eterna round: R97, puzzle: Exclusion 2)
23.8

Please do the same for GUUGUUCGGUAGGAUAUGAAACAGCAGAGAUUGUCAGAAGGGCCGACAUGAGGAUCACCCAUGUGUGCGAAAGC [Eternabot (L1) Solution 26] (Eterna round: R97, puzzle: Exclusion 6) as well.
50

Quick one: AGAGGACAUGAGGAUCACCCAUGUAAGGAUAUGCGGAGAGUUUGGAGAGGUCGGGUAGGCAGAAGGUACAGGAG [JR_Exclu1_Sub050] (Eterna round: R96, puzzle: Exclusion 1)
86.4

Quick one: AACAAAAGCGUAGGAUAUGACUGGGCUCAUGCCUAACAUAACUACAAACAUGAGGAUCACCCAUGUCAGAAGGACGAAUAAAAU [Isesbequti] (Eterna round: R96, puzzle: Exclusion NG 2)
72

Next: ACUCACUCGCGAGGAUAUGGACAAAUAUAAACGCUAGAAGGCGCGACAUGAGGAUCACCCAUGUACUCACUCACUCACUCACAU [my 1st design ever] (Eterna round: R96, puzzle: Exclusion NG 1)
41.9

Source: the supplement of paper PMC9170038
